Collected binding signal values appear next to each entry.
- system_under_test: T1, ERRα1 (estrogen-related receptor alpha 1, NR3B1) (Homo sapiens, UniProt P11474 P11474:1-423)
- T1 sequence: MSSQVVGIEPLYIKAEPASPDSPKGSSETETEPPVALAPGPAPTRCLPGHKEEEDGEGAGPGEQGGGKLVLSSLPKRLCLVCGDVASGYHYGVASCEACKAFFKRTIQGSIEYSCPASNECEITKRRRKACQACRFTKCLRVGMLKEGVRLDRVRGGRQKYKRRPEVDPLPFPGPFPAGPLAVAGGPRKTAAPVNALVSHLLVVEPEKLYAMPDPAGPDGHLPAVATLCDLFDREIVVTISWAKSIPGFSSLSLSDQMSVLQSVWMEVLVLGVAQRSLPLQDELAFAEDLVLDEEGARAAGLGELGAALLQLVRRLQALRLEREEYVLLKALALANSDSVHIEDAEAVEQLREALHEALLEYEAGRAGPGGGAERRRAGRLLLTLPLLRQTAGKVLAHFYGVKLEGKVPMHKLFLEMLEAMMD
- experiment_description: competition; competition EMSA, COS extract
- condition_summary: tags: COS / COS-M6 whole-cell extract, pcDNA3.1-hERRα1 or pRSV-hERRα1

# binder, binding signal (RBA vs reference ERRE)
records = [
    ("Cathepsin D site (dsDNA) DNA 1: TGGCATATTGGGTGAAGGTCAAGGGAGTGGCTT DNA 2: AAGCCACTCCCTTGACCTTCACCCAATATGCCA", 0.49),
    ("pS2 site 2 (dsDNA) DNA 1: GTAGGACCTGGATTAAGGTCAGGTTGGAGGAGA DNA 2: TCTCCTCCAACCTGACCTTAATCCAGGTCCTAC", 0.12),
    ("PgR site 2 (dsDNA) DNA 1: TCCTTGCTAAACCCAAGGTCATAAATCTTTTCT DNA 2: AGAAAAGATTTATGACCTTGGGTTTAGCAAGGA", 0.91),
    ("pS2 site 1 (dsDNA) DNA 1: TCCCTTCCCCCTGCAAGGTCACGGTGGCCACCC DNA 2: GGGTGGCCACCGTGACCTTGCAGGGGGAAGGGA", 0.49),
    ("BRCA2 site (dsDNA) DNA 1: AGAACATCCCTTTTAAGGTCAGAACAAAGGTAT DNA 2: ATACCTTTGTTCTGACCTTAAAAGGGATGTTCT", 0.08),
]

Numbers sourced from patent US20030152959.
